Overview of recorded %Inh for various compounds
# Tested on: TNK1
# experimental-parameters: concentration: 1 μM, replicates: in singlicate; n = 1;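 also: KINOMEscan kinase panel screen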

{"compound": "Cn1cc(-c2ccc3c(c2)CCN3C(=O)Cc2cccc(F)c2)c2c(N)ncnc21 [GSK2603358]", "%Inh [%]": 0}
{"compound": "Cc1cccc(Nc2nc(N[C@H]3CCNC3)ncc2C(N)=O)c1.Cl [GSK2197149]", "%Inh [%]": 47}
{"compound": "COc1ccc(Nc2nccc(N3CCC(NC(=O)Nc4cccc(OC)c4)C3)n2)cc1 (stereo not drawn) [GSK1379742]", "%Inh [%]": 0}

* * *

# Test system: IKK-alpha
# Construct: gene CHUK
# experimental-parameters: concentration: 1 μM, replicates: in singlicate; n = 1

{"compound": "Fc1ccc(-c2ncn(C3CCNCC3)c2-c2ccnc(Oc3ccc(-c4ccccc4)cc3)n2)cc1 [SB-245391]", "measure-unit": "%", "%Inh": 32}
{"compound": "Cl.c1ccc(-c2ccc3c(Nc4ccc5[nH]ncc5c4)ccnc3c2)nc1 [GW440137]", "measure-unit": "%", "%Inh": 10}
{"compound": "CN(C)S(=O)(=O)c1cc(-c2ccc3nccc(-c4cccc(S(N)(=O)=O)c4)c3c2)cnc1N [GSK1669921]", "measure-unit": "%", "%Inh": 0}
{"compound": "C[C@@H]1CC[C@@H](C(=O)Nc2ccccc2)CN1c1cc(-c2ccc3c(N)n[nH]c3c2)nc(N)n1 [GSK2286062]", "measure-unit": "%", "%Inh": 0}
{"compound": "Cn1cc(-c2ccc3c(c2)CCN3C(=O)Cc2cccc(F)c2)c2c(N)ncnc21 [GSK2603358]", "measure-unit": "%", "%Inh": 15}

* * *

Catalogue of compounds with associated %Inh
# Test system: ERK5
# Construct: gene MAPK7
# experimental-parameters: concentration: 1 μM, replicates: in singlicate; n = 1

{"compound": "CSc1cccc2c(-c3ccncn3)c(-c3ccc(F)cc3)nn12", "%Inh, %": 0}
{"compound": "CN(c1ccc(NC(=O)Nc2cc(C(F)(F)F)ccc2F)cc1)c1ccnc(Nc2ccc(S(N)(=O)=O)cc2)n1", "%Inh, %": 79}
{"compound": "Cc1cccc(NC(=O)Nc2ccc(Oc3ncnc4ccn(C)c34)cc2)c1", "%Inh, %": 0}
{"compound": "COc1cc(Nc2nccc(-c3c(-c4cccc(NC(=O)c5c(F)cccc5F)c4)nn4ncccc34)n2)cc(OC)c1OC", "%Inh, %": 68}
{"compound": "CC(=O)N1CCN(c2ccc(Nc3nccc(-c4sc(C(C)C)nc4-c4cccc(NS(=O)(=O)c5cccc(Cl)c5)c4)n3)cn2)CC1", "%Inh, %": 0}
{"compound": "Cl.NC(=O)c1cccc(Nc2nccc(Nc3ccc(Oc4c(Cl)cccc4Cl)c(Cl)c3)n2)c1", "%Inh, %": 0}
{"compound": "CCCCc1nn2ncccc2c1-c1ccnc(Nc2ccc(N3CCN(C)CC3)cc2)n1", "%Inh, %": 0}
{"compound": "COc1cccc(NC(=O)NC2CCN(c3ccnc(Nc4cc(OC)c(OC)c(OC)c4)n3)C2)c1 (stereo not shown)", "%Inh, %": 0}
{"compound": "COc1cc(Nc2nccc(N3CCC(NC(=O)Nc4cccc(C(C)=O)c4)C3)n2)cc(OC)c1OC (stereo not shown)", "%Inh, %": 0}
{"compound": "COc1cc(Nc2ncc3c(C)nc(-c4cc5ccccc5[nH]4)n3n2)cc(OC)c1OC", "%Inh, %": 7}

* * *

# System: ALK
# experimental-parameters: concentration: 1 μM, replicates: in singlicate; n = 1

{"cpd-smiles": "c1ccc(-c2n[nH]cc2Nc2ccnc3ccccc23)nc1", "%Inh, %": 21}
{"cpd-smiles": "O=C(Nc1cccc(Oc2ccc3nc(NC(=O)C4CC4)cn3n2)c1)c1ccccc1C(F)(F)F", "%Inh, %": 22}
{"cpd-smiles": "CN1CCN(Cc2cccc(-c3ccc4c(Nc5ccc(Oc6ccccc6)cc5)ccnc4c3)c2)CC1", "%Inh, %": 23}
{"cpd-smiles": "O=C(O)C(F)(F)F.O=C(O)C(F)(F)F.O=c1[nH]ccc2nc(N[C@@H]3CCCNC3)nc(Nc3ccc(S(=O)(=O)N4CCOCC4)cc3)c12", "%Inh, %": 97.4}

* * *

# Tested on: TLK2
# experimental-parameters: concentration: 1 μM, replicates: in singlicate; n = 1
Catalogue of %Inh readings, one per entry.
metric: %Inh (%)

{"compound": "Cl.NC(=O)c1cccc(Nc2nccc(Nc3ccc(Oc4c(Cl)cccc4Cl)c(Cl)c3)n2)c1", "numeric-readout": 0}
{"compound": "Cn1cc(-c2[nH]c3cc(NC(=O)[C@H](N)C4CCCCC4)cc4c3c2C=NNC4=O)cn1", "numeric-readout": 1}
{"compound": "Cl.c1ccc(-c2ccc3c(Nc4ccc5[nH]ncc5c4)ccnc3c2)nc1", "numeric-readout": 5}
{"compound": "O=C(Nc1cccc(-c2nn3ccccc3c2-c2ccnc(Nc3cccc(F)c3)n2)c1)c1c(F)ccc(F)c1Cl", "numeric-readout": 0}
{"compound": "COc1ccc(Nc2nccc(NCCNC(=O)c3cc4ccccc4s3)n2)cc1", "numeric-readout": 0}
{"compound": "COc1ccc(CNC(=O)NC2CCN(c3ccnc(Nc4ccc(F)cc4)n3)CC2)cc1", "numeric-readout": 0}
{"compound": "c1ccc(-c2cnc3nccnn23)cc1", "numeric-readout": 0}
{"compound": "COc1cccc(C(=O)Nc2cccc(Oc3ccc4nc(NC(=O)C5CC5)cn4n3)c2)c1", "numeric-readout": 0}
{"compound": "COCCOCCOc1cc2ncc3c4ccc(C#N)cc4[nH]c3c2cc1OC", "numeric-readout": 0}
{"compound": "O=C(NC1CCN(c2ccnc(Nc3ccc(F)cc3)n2)C1)c1cc2ccccc2s1 (centres unmarked)", "numeric-readout": 0}
{"compound": "Nc1ncc(-c2cccnc2)c2scc(-c3ccc4c(c3)CCN4C(=O)Cc3ccccc3)c12", "numeric-readout": 0}
{"compound": "O=C(Nc1cccc(-c2nn3ccccc3c2-c2ccnc(Nc3cccc(C(F)(F)F)c3)n2)c1)c1c(F)cccc1F", "numeric-readout": 0}
{"compound": "Cc1ccc(C(=O)Nc2ccc(Nc3ccnc4cc(-c5nccs5)ccc34)cc2O)cc1.Cl", "numeric-readout": 0}
{"compound": "C[C@@H]1CC[C@@H](C(=O)Nc2ccccc2)CN1c1cc(-c2ccc3c(N)n[nH]c3c2)nc(N)n1", "numeric-readout": 4}
{"compound": "CN1CCN(CCCNc2nccc(-c3c(-c4ccc(F)cc4)nn4cc(C(F)(F)F)ccc34)n2)CC1", "numeric-readout": 0}
{"compound": "COC(=O)Nc1nc2ccc(Oc3ccc(NC(=O)Nc4cc(C(F)(F)F)ccc4F)cc3)cc2n1C.Cl", "numeric-readout": 33}
{"compound": "COc1cc(Nc2nccc(-c3c(-c4cccc(NC(=O)c5c(F)cccc5F)c4)nn4ncccc34)n2)cc(OC)c1OC", "numeric-readout": 12}

* * *

# Test system: TBK1
# experimental-parameters: concentration: 1 μM, replicates: in singlicate; n = 1
Entries and their measured %Inh follow.

{"molecule": "COc1cccc(C(=O)Nc2cccc(Oc3ccc4nc(NC(=O)C5CC5)cn4n3)c2)c1", "measure-unit": "%", "%Inh": 48}
{"molecule": "NCCCC(NC(=O)c1cc(Br)c(-c2ccnc3[nH]ccc23)s1)c1ccccc1.O=C(O)C(F)(F)F.O=C(O)C(F)(F)F (stereo not shown) [GSK1287544]", "measure-unit": "%", "%Inh": 0}
{"molecule": "CCn1c(-c2nonc2N)nc2c(C#CC(C)(C)O)nc(OC[C@H](N)c3ccccc3)cc21 [GSK943949]", "measure-unit": "%", "%Inh": 0}
{"molecule": "COc1cccc(-c2ccc3c(NC(=O)C4CC4)n[nH]c3n2)c1 [SB-710903]", "measure-unit": "%", "%Inh": 13}
{"molecule": "Cl.c1ccc(-c2ccc3c(Nc4ccc5[nH]ncc5c4)ccnc3c2)nc1 [GW440137]", "measure-unit": "%", "%Inh": 21}
{"molecule": "O=C(Nc1cccc(-c2nn3ncccc3c2-c2ccnc(Nc3ccccc3)n2)c1)c1c(F)cccc1F [GSK198271]", "measure-unit": "%", "%Inh": 0}
{"molecule": "CN(C)Cc1ccc(-c2ccc3c(Nc4ccc(Oc5ccccn5)cc4)ccnc3c2)o1 [GW567148]", "measure-unit": "%", "%Inh": 7}

* * *

# System: TSSK1B
# experimental-parameters: concentration: 1 μM, replicates: in singlicate; n = 1
hey, just use 1 (yes) if measured %Inh is less than 5%, otherwise 0 (no)

{"compound": "O=C(O)C(F)(F)F.O=C(O)C(F)(F)F.O=c1[nH]ccc2nc(N[C@@H]3CCCNC3)nc(Nc3ccc(S(=O)(=O)N4CCOCC4)cc3)c12 [GSK2177277]", "label-class": "0 (no)"}
{"compound": "CC(C)(C)c1ccc2nccc(Nc3cccc(O)c3)c2c1 [GW856795]", "label-class": "1 (yes)"}
{"compound": "CCS(=O)(=O)c1ccc(OC)c(Nc2nccc(-c3c(-c4cccc(NC(=O)c5c(F)cccc5F)c4)nn4ncccc34)n2)c1 [GSK326180]", "label-class": "0 (no)"}
{"compound": "Fc1ccc(-c2ncn(C3CCNCC3)c2-c2ccnc(Oc3ccc(-c4ccccc4)cc3)n2)cc1 [SB-245391]", "label-class": "1 (yes)"}
{"compound": "Cl.Cl.NCC(NCc1ccc(-c2ccnc3[nH]ccc23)s1)c1ccccc1 (stereo not shown) [GSK1321565]", "label-class": "0 (no)"}
{"compound": "CC(C)c1nc(-c2cccc(NS(=O)(=O)c3c(F)cccc3F)c2F)c(-c2ccnc(Nc3ccc(N4CCOCC4)nc3)n2)s1 [GSK2008607]", "label-class": "1 (yes)"}
